// provenance: paper PMC9571711

Assay Target: crude intestinal α-glucosidase
Test Details: In vitro alpha-glucosidase inhibition (p-nitrophenyl-α-D-glucopyranoside)
Format: biochemical
Run Conditions: ± SEM
Mark True for IC50 under 9 µM, False if at or over.

Ask: Hello, is IC50 of the following compound strictly smaller than 9 µM? COc1cc2cc[nH]c2c(O)c1/C=C1\S/C(=N\c2nccs2)NC1=O
Reply: True

Ask: Hello, is IC50 of the following compound strictly smaller than 9 µM? O=C1N/C(=N/c2nccs2)S/C1=C\c1cc(O)c2cc[nH]c2c1O
Reply: True

Ask: Hello, is IC50 of the following compound strictly smaller than 9 µM? O=C1N/C(=N/c2nccs2)S/C1=C\c1cc2[nH]ccc2c(Cl)c1Br
Reply: False

Ask: Hello, is IC50 of the following compound strictly smaller than 9 µM? N#Cc1cc(/C=C2\S/C(=N\c3nccs3)NC2=O)cc2[nH]ccc12
Reply: False

Ask: Hello, is IC50 of the following compound strictly smaller than 9 µM? O=C1N/C(=N/c2nccs2)S/C1=C\c1cc(C(F)(F)F)c2cc[nH]c2c1O
Reply: True

Ask: Hello, is IC50 of the following compound strictly smaller than 9 µM? O=C1N/C(=N/c2nccs2)S/C1=C\c1cc2[nH]ccc2c(Cl)c1Cl
Reply: False

---

Would you kindly list IC50 for each of these molecules?
Assay Target: crude intestinal α-glucosidase
Test Details: In vitro alpha-glucosidase inhibition (p-nitrophenyl-α-D-glucopyranoside)
Assay type: biochemical
Run Conditions: ± SEM
A number alone suffices; assume µM.

Ask: Please look up its IC50: O=C1N/C(=N/c2nccs2)S/C1=C\c1cccc(O)c1 [Compound 19]
Reply: 19.8

Ask: Please look up its IC50: Cc1c(/C=C2\S/C(=N\c3nccs3)NC2=O)cc2[nH]ccc2c1Br [Compound 18]
Reply: 23.3

Ask: Please look up its IC50: O=C1N/C(=N/c2nccs2)S/C1=C\c1cc2[nH]ccc2c(Cl)c1[N+](=O)[O-] [Compound 3]
Reply: 8.7

Ask: Please look up its IC50: O=C1N/C(=N/c2nccs2)S/C1=C/c1cc(F)c2cc[nH]c2c1 [Compound 4]
Reply: 2.7

Ask: Please look up its IC50: O=C1N/C(=N/c2nccs2)S/C1=C\c1cc(Br)c2cc[nH]c2c1Cl [Compound 16]
Reply: 26.7

Ask: Please look up its IC50: O=C1N/C(=N/c2nccs2)S/C1=C\c1c(O)cc2cc[nH]c2c1Br [Compound 20]
Reply: 29.4

Ask: Please look up its IC50: CN(C)c1cc(/C=C2\S/C(=N\c3nccs3)NC2=O)cc2[nH]ccc12 [Compound 9]
Reply: 23.2

Ask: Please look up its IC50: O=C1N/C(=N/c2nccs2)S/C1=C\c1c(O)cc2cc[nH]c2c1Cl [Compound 11]
Reply: 7.85

Ask: Please look up its IC50: Cc1c(Br)c(/C=C2\S/C(=N\c3nccs3)NC2=O)cc2[nH]ccc12 [Compound 17]
Reply: 31.5

---

Would you kindly list melting point for each of these compounds?

Ask: Please look up its melting point: N#Cc1cc(/C=C2\S/C(=N\c3nccs3)NC2=O)cc2[nH]ccc12
Reply: 239 to 242 °C

Ask: Please look up its melting point: O=C1NC(=Nc2nccs2)SC1=Cc1cc2[nH]ccc2cc1F
Reply: 234 to 236 °C

Ask: Please look up its melting point: O=C1N/C(=N/c2nccs2)S/C1=C\c1cc(O)c2cc[nH]c2c1O
Reply: 238 to 241 °C

Ask: Please look up its melting point: O=C1N/C(=N/c2nccs2)S/C1=C\c1c(O)cc2cc[nH]c2c1Br
Reply: 234 to 237 °C

Ask: Please look up its melting point: O=C1N/C(=N/c2nccs2)S/C1=C\c1cc(O)c2cc[nH]c2c1Cl
Reply: 236 to 239 °C

Ask: Please look up its melting point: CN(C)c1cc(/C=C2\S/C(=N\c3nccs3)NC2=O)cc2[nH]ccc12
Reply: 234 to 237 °C

Ask: Please look up its melting point: O=C1N/C(=N/c2nccs2)S/C1=C/c1cc(F)c2cc[nH]c2c1
Reply: 237 to 239 °C

Ask: Please look up its melting point: O=C1N/C(=N/c2nccs2)S/C1=C\c1cc(Br)c2cc[nH]c2c1Cl
Reply: 240 to 242 °C

Ask: Please look up its melting point: O=C1N/C(=N/c2nccs2)S/C1=C\c1cc2[nH]ccc2c(Cl)c1Cl
Reply: 231 to 233 °C

Ask: Please look up its melting point: Cc1c(/C=C2\S/C(=N\c3nccs3)NC2=O)cc2[nH]ccc2c1Br
Reply: 239 to 242 °C

Ask: Please look up its melting point: O=C1N/C(=N/c2nccs2)S/C1=C\c1cc2[nH]ccc2c(Cl)c1[N+](=O)[O-]
Reply: 235 to 237 °C

Ask: Please look up its melting point: O=C1N/C(=N/c2nccs2)S/C1=C\c1cc(C(F)(F)F)c2cc[nH]c2c1O
Reply: 238 to 240 °C

Ask: Please look up its melting point: O=C1N/C(=N/c2nccs2)S/C1=C\c1c(O)cc2cc[nH]c2c1Cl
Reply: 236 to 239 °C

Ask: Please look up its melting point: COc1cc2cc[nH]c2c(O)c1/C=C1\S/C(=N\c2nccs2)NC1=O
Reply: 238 to 241 °C

Ask: Please look up its melting point: O=C1N/C(=N/c2nccs2)S/C1=C\c1cc2[nH]ccc2c(Cl)c1Br
Reply: 241 to 243 °C

Ask: Please look up its melting point: Cc1c(Br)c(/C=C2\S/C(=N\c3nccs3)NC2=O)cc2[nH]ccc12
Reply: 242 to 245 °C
